target: USP14 (UniProt P54578); test: log2 ratio of Biotin-Ahx-Ub-VS probe labelling (fragment/DMSO); higher = less target engagement (more negative = stronger competition), active = hit call of the paper (q ≤ 0.05, log2 ratio ≤ -1); settings: compound concentration: 200 uM; treatment time: 3 h
Sequence (P54578 whole entry, the tested form may be a part): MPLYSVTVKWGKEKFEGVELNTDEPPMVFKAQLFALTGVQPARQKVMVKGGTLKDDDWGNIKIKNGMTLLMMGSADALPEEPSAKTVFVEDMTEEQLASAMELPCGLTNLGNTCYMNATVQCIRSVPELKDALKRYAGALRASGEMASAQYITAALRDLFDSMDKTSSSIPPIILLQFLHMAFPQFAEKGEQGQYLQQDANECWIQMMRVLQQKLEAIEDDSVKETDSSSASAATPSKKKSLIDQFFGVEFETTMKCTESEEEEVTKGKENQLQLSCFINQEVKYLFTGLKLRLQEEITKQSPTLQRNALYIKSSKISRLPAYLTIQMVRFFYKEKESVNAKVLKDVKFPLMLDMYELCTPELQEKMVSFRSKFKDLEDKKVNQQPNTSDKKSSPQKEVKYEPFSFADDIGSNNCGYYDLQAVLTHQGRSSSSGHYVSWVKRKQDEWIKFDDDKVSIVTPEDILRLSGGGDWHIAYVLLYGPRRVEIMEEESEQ
readout-kind: log2 ratio of Biotin-Ahx-Ub-VS probe labelling
One number for each entry.

Lab note: each compound below needs its log2 ratio of Biotin-Ahx-Ub-VS probe labelling filled in.
1. O=C(CCl)Nc1ccc(F)cc1F
2. O=C(CCl)NCc1ccc2c(c1)OCO2
3. O=C(CCl)NC1CCN(C(=O)C2CCCCC2)CC1
4. Cl.Cn1cnc2cc(CNC(=O)CCl)ccc21
5. O=C(CCl)N1CCC(c2nc3ccccc3o2)CC1

Output:
-0.106
0.052
-0.0275
-0.222
-0.483

Lab note: each compound below needs its log2 ratio of Biotin-Ahx-Ub-VS probe labelling filled in.
1. NC(=O)C1CCCN(C(=O)CCl)C1 (configuration not stated)
2. O=C(CCl)NCCc1ccc(F)cc1

Output:
-0.153
-0.0749

---

target: UniProt P51784; assay: log2 ratio of Biotin-Ahx-Ub-VS probe labelling (fragment/DMSO); higher = less target engagement (more negative = stronger competition), active = hit call of the paper (q ≤ 0.05, log2 ratio ≤ -1); settings: compound concentration: 200 uM; treatment time: 3 h
Sequence (P51784 whole entry, the tested form may be a part): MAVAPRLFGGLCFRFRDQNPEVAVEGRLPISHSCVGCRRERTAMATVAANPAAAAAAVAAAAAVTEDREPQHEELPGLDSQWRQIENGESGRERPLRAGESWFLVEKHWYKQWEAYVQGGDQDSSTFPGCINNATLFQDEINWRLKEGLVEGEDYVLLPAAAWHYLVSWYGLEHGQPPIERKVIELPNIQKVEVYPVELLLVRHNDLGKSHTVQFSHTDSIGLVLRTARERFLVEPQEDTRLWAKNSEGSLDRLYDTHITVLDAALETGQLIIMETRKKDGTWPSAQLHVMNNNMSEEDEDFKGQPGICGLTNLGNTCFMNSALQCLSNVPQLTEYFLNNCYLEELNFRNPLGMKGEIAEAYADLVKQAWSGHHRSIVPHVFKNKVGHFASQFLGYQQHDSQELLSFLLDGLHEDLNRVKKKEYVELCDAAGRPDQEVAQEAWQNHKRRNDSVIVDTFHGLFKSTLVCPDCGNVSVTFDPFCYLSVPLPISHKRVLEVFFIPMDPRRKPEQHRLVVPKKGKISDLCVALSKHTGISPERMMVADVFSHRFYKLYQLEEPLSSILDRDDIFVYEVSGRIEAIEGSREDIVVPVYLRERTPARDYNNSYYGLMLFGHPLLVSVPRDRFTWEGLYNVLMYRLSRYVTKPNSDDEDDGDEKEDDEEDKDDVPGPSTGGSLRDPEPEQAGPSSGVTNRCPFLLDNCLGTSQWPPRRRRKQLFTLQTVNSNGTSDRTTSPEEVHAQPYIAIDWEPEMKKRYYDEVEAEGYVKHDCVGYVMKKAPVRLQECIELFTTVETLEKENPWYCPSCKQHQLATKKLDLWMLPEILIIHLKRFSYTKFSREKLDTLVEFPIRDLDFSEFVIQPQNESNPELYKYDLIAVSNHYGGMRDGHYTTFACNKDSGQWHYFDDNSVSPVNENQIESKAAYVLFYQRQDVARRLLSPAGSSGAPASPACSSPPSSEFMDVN
readout-kind: log2 ratio of Biotin-Ahx-Ub-VS probe labelling

Example entries and their recorded answers appear below.
[[record]]
compound = "O=C(CCl)NC1CCCCNC1=O (stereo not given)"
value = "-0.117 (inactive)"

[[record]]
compound = "CNC(=O)C1(NC(=O)CCl)CCCCC1"
value = "0.188 (inactive)"

[[record]]
compound = "O=C(CCl)N1CCOC(c2cccc(F)c2)C1 (stereo not given)"
value = "-0.328 (inactive)"

[[record]]
compound = "CN1C(=O)c2ccc(NC(=O)CCl)cc2C1=O"
value = "-0.0657 (inactive)"

[[record]]
compound = "Cc1ccc(CN(C)C(=O)CCl)o1"
value = "0.146 (inactive)"

[[record]]
compound = "Cc1cnc2[nH]cc(CCNC(=O)CCl)c2c1"
value = "0.0378 (inactive)"

[[record]]
compound = "Cc1n[nH]c2c1CN(C(=O)CCl)CC2"
value = "-0.554 (inactive)"

[[record]]
compound = "CC(c1ccccc1)N(C)C(=O)CCl (stereo not given)"
value = "-0.169 (inactive)"


Lab note: each compound below needs its log2 ratio of Biotin-Ahx-Ub-VS probe labelling filled in.
1. NC(=O)C(Cc1ccccc1)NC(=O)CCl (stereo not given)
2. O=C(CCl)N1CCC(c2noc3cc(F)ccc23)CC1
3. Cc1ccc(N(C(=O)CCl)C2C=CS(=O)(=O)C2)cc1 (stereo not given)
4. CC1Cc2ccccc2N1C(=O)CCl (stereo not given)
5. O=C(CCl)NCC(=O)N1CCCC1
6. C#Cc1cccc(NC(=O)CCl)c1
7. NC(=O)C1CCCN(C(=O)CCl)C1 (stereo not given)
8. CC(=O)Nc1ccc(NC(=O)CCl)cc1

Output:
["-0.0194 (inactive)", "0.00105 (inactive)", "0.0438 (inactive)", "-0.254 (inactive)", "0.172 (inactive)", "-0.102 (inactive)", "-0.0378 (inactive)", "0.016 (inactive)"]

Lab note: each compound below needs its log2 ratio of Biotin-Ahx-Ub-VS probe labelling filled in.
1. Cc1ccc(C)c(Oc2ccc(CNC(=O)CCl)cn2)c1.Cl
2. O=C(CCl)N[C@H]1CC[C@@H](CO)CC1
3. COc1ccc(CN(C)C(=O)CCl)cc1
4. CC(NC(=O)CCl)c1noc(Cc2ccccc2)n1 (stereo not given)

Output:
1. -0.367 (inactive)
2. -0.788 (inactive)
3. 0.00264 (inactive)
4. -0.0798 (inactive)
